System: Plasmodium falciparum
measurement.description: Calibr Malaria Delayed Death Assay SOP
Type: functional, organism-based
Parameters: scale not given: in the data most compounds retested in dose-response had high values
test.context: concentration 4.99e-06 (unit not given; other assays of the set use mol/L)
Among all 38,000 compounds or so, about 1,200 (3.2%) showed an effect of 50% or more. The median lay at about -58%. Many of the other results were omitted from the sample, so strong results are more common in it than they were.
Catalogue of compounds with associated Percent Effect
Express the result in % but write the number alone.

CC(C)n1nc(CN(C)C)c2c1CN(CC1CC1)CC2.O=C(O)C(F)(F)F.O=C(O)C(F)(F)F = -96.94

Supply Percent Effect value. Item: c1cc(CNCC2CNc3ccnn3C2)cc(Cn2cccn2)c1 (stereo not given)
-27.88

Supply Percent Effect value. Item: Cc1cccc(CS(=O)(=O)NCC(O)Cc2ccccc2)c1 (stereo not given)
-12.6

Supply Percent Effect value. Item: CC(NCC1CCN(CCO)CC1)c1ccc(OC(F)(F)F)cc1 (stereo not given)
93.49

Supply Percent Effect value. Item: Cc1nc(CN2CCCC23CCN(c2nc4ccccc4s2)CC3)co1
8.403

====

Tested on: Plasmodium falciparum
measurement.description: Calibr Malaria Delayed Death Assay SOP
Format: functional, organism-based
Set-up: scale not given: in the data most compounds retested in dose-response had high values
test.context: concentration 4.99e-06 (unit not given; other assays of the set use mol/L)
The whole screen tested about 38,000 compounds, of which about 1,200 (3.2%) showed an effect of 50% or more. The median lay at about -58%. The full list was thinned out, with strong results kept by preference.
assay.endpoint: Percent Effect
The reply must contain the numeric value and, after it, the unit.

O=C(C1CCCC1)N1CCC(c2n[nH]c3nccnc23)CC1 = -90.69%
O=C(O)C(F)(F)F.O=C(c1ccco1)N1C[C@H]2CCCN(Cc3ccc(F)cc3)[C@H]2C1 = -36.52%
Cc1cc(S(=O)(=O)NCC2CNCCOC2)c(C)cc1Cl (centres undefined) = 75.13%
O=C(N1CCc2ccccc2CC1)C1(O)Cc2ccccc2C1 = 56.27%
O=C(C1CCC1)N1CC[C@@H]2CN(Cc3cccnc3)S(=O)(=O)[C@@H]2CC1 = -57.62%

Supply Percent Effect value. Item: CCC[C@H]1CN(c2nc(CO)cs2)C[C@@H]1NC(=O)C1CCC1
1.552%

Supply Percent Effect value. Item: CC(Cn1cccn1)NC(=O)N1CCN(Cc2cccnc2)CC1 (centres undefined)
-145.3%

Supply Percent Effect value. Item: Cc1ccc2nc(C(=O)N3CC(c4cccnc4)C3)cn2c1
-27.83%

Supply Percent Effect value. Item: NC(CC1CCCC1)c1ccc(Oc2ccccc2)cc1 (centres undefined)
80.17%

Supply Percent Effect value. Item: NC(c1ccccc1)c1ccc(OC(F)F)cc1 (centres undefined)
9.975%

====

Tested on: Plasmodium falciparum
measurement.description: Calibr Malaria Delayed Death Assay SOP
Type: functional, organism-based
Set-up: scale not given: in the data most compounds retested in dose-response had high values
test.context: concentration 4.99e-06 (unit not given; other assays of the set use mol/L)
In all, about 38,000 compounds went through this assay and about 1,200 (3.2%) showed an effect of 50% or more. The median lay at about -58%. This excerpt belongs to a sample that is enriched for strong results.
Catalogue of compounds with associated Percent Effect
Express the result in % but write the number alone.

Check out these entries, answers already filled in.
O=C(CN1CCOCC1)Nc1ncc(Br)cc1Br = -123.1
COc1ccc(O[C@H]2COCCN(Cc3c[nH]c4ccccc34)C2)cc1 = -21.41
CCc1cc(NCCCOC2CCCC2)ncn1 = -19.37
Cc1nc(-n2cnnc2)ccc1-c1cccc2c1CCNC2 = 68.26
CCc1nnnn1Cc1csc(N(C)C(C)=O)n1 = -54.02
Cc1cc(-n2cccn2)ccc1CN1CCOCC(CN(C)C)C1 (stereo unspecified) = 73.33
COC(=O)CCCC(=O)N1CCCCC1c1ccc(F)cc1 (stereo unspecified) = -184.4
CC(C)c1cc(C(=O)NC2CCN(CC(N)=O)CC2)nn1C(C)(C)C = -153
Nc1nc2c(c(NC(=O)Nc3ccc(Cl)c(Cl)c3)n1)CCCC2 = -65.1
Cn1cc(C2CC(=O)NC23CCN(C(=O)C2CC=CC2)CC3)cn1 (stereo unspecified) = -79.79

Supply Percent Effect value. Item: CC(=O)NC1CCN(c2nc(N)nc3c2CCCC3)C1 (stereo unspecified)
-119.8

Supply Percent Effect value. Item: COCCc1nnc(NC(=O)CCCc2ccccc2)o1
-177.1

Supply Percent Effect value. Item: CC(C)[C@H](NC(=O)NC1CCS(=O)(=O)C1)C(=O)NCc1ccc(Cl)cc1 (stereo partly specified)
-111.5

Supply Percent Effect value. Item: Cc1ccc(C(C)(O)CNC(=O)CCn2ccnc2C(C)C)o1 (stereo unspecified)
-68.59

Supply Percent Effect value. Item: COCCC1COC2(CCN(C(=O)c3cccn3C)CC2)C1 (stereo unspecified)
-157.5

Supply Percent Effect value. Item: CCOc1cccc2c1OCC(=O)N(c1ccc(N(C)C)cc1)C2
-248.2

====

Tested on: Plasmodium falciparum
measurement.description: Calibr Malaria Delayed Death Assay SOP
Assay type: functional, organism-based
Design: scale not given: in the data most compounds retested in dose-response had high values
test.context: concentration 4.99e-06 (unit not given; other assays of the set use mol/L)
Out of some 38,000 compounds screened, about 1,200 (3.2%) showed an effect of 50% or more. The median lay at about -58%. Shown is part of a subset that was picked to be rich in strong results.
Catalogue of molecules with associated Percent Effect
Express the result in % but write the number alone.

Check out these entries, answers already filled in.
Clc1cccnc1N1CCC(C2CCN(Cc3cccnc3)CC2)C1 (centres undefined) = -53.88
CC(=O)NCC(=O)N1CCC(C2CCN(Cc3ccc(Cl)cc3)C2)CC1 (centres undefined) = 1.574
CCOc1cccc(CNC(C)c2ccc(-n3ccnc3)cc2)c1O (centres undefined) = 74.87

We now examine a further molecule.
Name the value of Percent Effect reported for O=C(C1CC1)N1CCC(C(=O)N2CCC(c3ccc(F)cc3)C2)CC1 (centres undefined) when tested on Plasmodium falciparum.
-98.79

meta.source: ChEMBL document CHEMBL3988442
